# target entity: Cathepsin B (Homo sapiens, UniProt P07858)
pIC50: −log10 of the molar value.
measurement type: pIC50

>>> reported_result("N#CCNC(=O)C1CCCCC1CSc1ccccc1 (stereo unspecified)")
5.28

###

# target entity: Procathepsin L (Homo sapiens, UniProt P07711)
# Sequence (P07711 whole entry): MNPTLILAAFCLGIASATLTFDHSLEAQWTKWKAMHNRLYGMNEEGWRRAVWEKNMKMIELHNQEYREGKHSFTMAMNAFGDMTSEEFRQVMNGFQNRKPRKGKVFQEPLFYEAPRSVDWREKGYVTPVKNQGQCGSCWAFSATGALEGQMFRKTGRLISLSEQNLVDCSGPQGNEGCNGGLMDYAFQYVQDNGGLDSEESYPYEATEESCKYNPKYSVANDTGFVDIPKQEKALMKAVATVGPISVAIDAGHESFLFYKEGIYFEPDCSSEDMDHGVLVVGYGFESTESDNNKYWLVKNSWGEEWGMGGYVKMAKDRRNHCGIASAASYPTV
measurement type: IC50 (µM)

>>> reported_result("N#CCNC(=O)C1CCCCC1CSc1ccccc1 (stereo unspecified)")
26

Hello, the source for this data is ChEMBL document CHEMBL2034973, in case you need it.
